# Target of assay: BaF3-LR_TM_CS cells (Homo sapiens, UniProt P00533, T790M/C797S/L858R, cells depend on it)
# Sequence (P00533 whole entry T790M/C797S/L858R): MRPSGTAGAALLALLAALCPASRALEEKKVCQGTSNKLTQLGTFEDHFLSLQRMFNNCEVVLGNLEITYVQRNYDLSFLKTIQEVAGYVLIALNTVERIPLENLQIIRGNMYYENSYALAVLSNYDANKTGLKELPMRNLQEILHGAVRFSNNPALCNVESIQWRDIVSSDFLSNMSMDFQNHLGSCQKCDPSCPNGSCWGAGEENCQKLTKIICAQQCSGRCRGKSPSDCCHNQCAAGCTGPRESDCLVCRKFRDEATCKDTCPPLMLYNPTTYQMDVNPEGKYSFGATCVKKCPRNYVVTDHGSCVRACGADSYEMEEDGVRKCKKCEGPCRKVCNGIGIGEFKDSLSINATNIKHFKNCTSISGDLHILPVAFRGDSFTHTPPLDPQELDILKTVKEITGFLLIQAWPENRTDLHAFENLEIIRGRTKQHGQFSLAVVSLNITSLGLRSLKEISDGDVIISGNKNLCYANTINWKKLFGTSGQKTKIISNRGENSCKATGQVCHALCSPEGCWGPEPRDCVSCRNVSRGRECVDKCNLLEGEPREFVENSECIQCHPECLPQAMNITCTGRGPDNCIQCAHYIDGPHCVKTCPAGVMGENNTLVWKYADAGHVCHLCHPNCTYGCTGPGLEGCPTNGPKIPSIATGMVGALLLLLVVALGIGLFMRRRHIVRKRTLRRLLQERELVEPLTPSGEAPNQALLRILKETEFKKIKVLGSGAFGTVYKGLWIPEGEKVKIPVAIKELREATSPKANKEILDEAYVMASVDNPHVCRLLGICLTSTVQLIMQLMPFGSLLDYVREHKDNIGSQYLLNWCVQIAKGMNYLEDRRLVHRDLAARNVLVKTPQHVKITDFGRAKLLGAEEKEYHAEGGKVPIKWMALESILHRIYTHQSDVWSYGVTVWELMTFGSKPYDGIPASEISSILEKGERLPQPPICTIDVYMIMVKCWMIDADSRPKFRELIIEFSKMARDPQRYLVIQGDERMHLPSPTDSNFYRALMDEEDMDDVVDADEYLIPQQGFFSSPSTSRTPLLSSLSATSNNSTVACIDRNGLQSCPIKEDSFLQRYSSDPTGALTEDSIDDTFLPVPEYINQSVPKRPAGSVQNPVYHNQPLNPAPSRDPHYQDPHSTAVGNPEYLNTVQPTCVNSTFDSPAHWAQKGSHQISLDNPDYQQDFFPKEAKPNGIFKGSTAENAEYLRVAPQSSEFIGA
# Assay comment: Cell antiproliferation assay (CellTiter-Glo), BaF3-LR_TM_CS
# Assay type: cell-based
# Stated conditions: 48 h treatment, read-out: BaF3-LR_TM_CS IC50
Property: GI50; scope: individual compounds
Metric name: GI50 (nM)

> print(dat)
                                    compound  metric.name  result.value
 1  CCc1cc(Nc2ncc(Cl)c(Nc3cccc4c3N(S(C)(=O)=O)CC4)n2)c(OC)cc1N1CCC(N2CCN(C)CC2)CC1         GI50          15.4
 2  CN(C)C1CCN(c2ccc(Nc3nc(Nc4cccc5c4N(S(C)(=O)=O)CC5)c4cc[nH]c4n3)c3c2CCO3)CC1         GI50           106
 3  CN1CCN(c2ccc(Nc3nc(Nc4cccc5c4N(S(C)(=O)=O)CC5)c4cc[nH]c4n3)c(F)c2F)CC1         GI50           141
 4  COc1cc(N2CCC(N3CCN(C)CC3)CC2)ccc1Nc1ncc(Cl)c(Nc2cccc3c2N(S(C)(=O)=O)CC3C)n1 (centres unmarked)         GI50          38.4
 5  CN1CCN(c2ccc(Nc3nc(Nc4cccc5c4N(S(C)(=O)=O)CC5)c4cc[nH]c4n3)cn2)CC1         GI50           169
 6  COc1cc(N2CCC(N3CCN(C)CC3)CC2)ccc1Nc1ncc(Br)c(Nc2cccc3c2N(S(C)(=O)=O)CC3)n1         GI50            13
 7  COc1cc(N2CCC(N3CCN(C)CC3)CC2)ccc1Nc1nc2c(c(Nc3cccc4c3N(S(C)(=O)=O)CC4)n1)CCC2         GI50           617
 8  COc1cc(N2CCC(N3CCN(C)CC3)CC2)ccc1Nc1nc(Nc2cccc3c2N(S(C)(=O)=O)CC3)c2[nH]ccc2n1         GI50          1470
 9  CCN1CCN(C2CCN(c3ccc(Nc4nc(Nc5ccc(F)c6c5N(S(C)(=O)=O)CC65CCC5)c5cc[nH]c5n4)cc3F)CC2)CC1         GI50          1040
10  CN(C)C1CCN(c2ccc(Nc3ncc(Cl)c(Nc4cccc5c4N(S(C)(=O)=O)CC5)n3)c3c2CCO3)CC1         GI50          37.8
11  COc1cc(N2CCN(C)[C@@H](C)C2)c(C)cc1Nc1nc(Nc2cccc3c2N(S(C)(=O)=O)CC3)c2cc[nH]c2n1         GI50           240
12  COc1cc(N2CCC(N3CCN(C)CC3)CC2)c(Cl)cc1Nc1nc(Nc2cccc3c2N(S(C)(=O)=O)CC3)c2cc[nH]c2n1         GI50          83.8
13  CNC(=O)N1CCc2cccc(Nc3nc(Nc4ccc(N5CCC(N6CCN(C)CC6)CC5)cc4OC)ncc3Cl)c21         GI50          1120
14  COc1cc(N2CCC(N3CCN(C)CC3)CC2)ccc1Nc1ncc(Cl)c(Nc2cccc3c2N(C(C)=O)CC3)n1         GI50           366

* * *

# Target of assay: BaF3-Del_TM_CS cells (Homo sapiens, UniProt P00533, T790M/C797S, cells depend on it, form not given)
# Sequence (P00533 with tags, fused parts or gaps DEL746-750/T790M/C797S, form open): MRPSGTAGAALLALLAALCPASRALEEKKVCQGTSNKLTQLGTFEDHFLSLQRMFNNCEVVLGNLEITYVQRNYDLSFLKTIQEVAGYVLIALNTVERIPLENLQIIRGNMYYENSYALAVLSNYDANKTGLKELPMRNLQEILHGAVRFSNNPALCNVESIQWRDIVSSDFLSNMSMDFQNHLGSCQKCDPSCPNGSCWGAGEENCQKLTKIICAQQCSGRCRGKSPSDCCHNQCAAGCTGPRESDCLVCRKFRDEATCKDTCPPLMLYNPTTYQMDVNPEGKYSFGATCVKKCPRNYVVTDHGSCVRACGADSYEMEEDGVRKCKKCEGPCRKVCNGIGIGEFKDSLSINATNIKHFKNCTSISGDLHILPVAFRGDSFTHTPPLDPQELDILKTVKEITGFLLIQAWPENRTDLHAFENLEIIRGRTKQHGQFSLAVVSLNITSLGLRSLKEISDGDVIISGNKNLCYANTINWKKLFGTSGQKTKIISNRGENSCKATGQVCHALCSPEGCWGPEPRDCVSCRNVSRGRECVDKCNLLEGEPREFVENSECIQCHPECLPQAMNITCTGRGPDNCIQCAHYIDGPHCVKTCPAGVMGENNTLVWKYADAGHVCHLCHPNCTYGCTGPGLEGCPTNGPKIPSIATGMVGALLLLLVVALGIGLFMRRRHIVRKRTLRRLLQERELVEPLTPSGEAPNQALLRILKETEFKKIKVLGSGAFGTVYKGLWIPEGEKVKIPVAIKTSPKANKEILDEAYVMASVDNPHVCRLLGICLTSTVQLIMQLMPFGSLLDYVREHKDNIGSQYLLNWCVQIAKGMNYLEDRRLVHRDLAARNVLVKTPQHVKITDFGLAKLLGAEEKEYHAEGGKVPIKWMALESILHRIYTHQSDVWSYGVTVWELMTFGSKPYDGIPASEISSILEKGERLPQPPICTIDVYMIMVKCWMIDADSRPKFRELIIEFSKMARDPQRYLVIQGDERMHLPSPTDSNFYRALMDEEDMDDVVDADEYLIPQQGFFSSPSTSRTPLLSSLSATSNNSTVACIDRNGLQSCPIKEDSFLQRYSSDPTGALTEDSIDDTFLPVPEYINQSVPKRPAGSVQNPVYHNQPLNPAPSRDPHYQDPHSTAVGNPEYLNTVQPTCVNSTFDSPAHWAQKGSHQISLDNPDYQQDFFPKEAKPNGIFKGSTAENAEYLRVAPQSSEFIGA
# Assay comment: Cell antiproliferation assay (CellTiter-Glo), BaF3-Del_TM_CS
# Assay type: cell-based
# Stated conditions: 48 h treatment, read-out: BaF3-Del_TM_CS IC50
Metric name: GI50

> print(dat)
                               entry.smiles  result.value
1  CN(C)C1CCN(c2ccc(Nc3nc(Nc4cccc5c4N(S(C)(=O)=O)CC5)c4cc[nH]c4n3)c3c2CCO3)CC1       39.1 nM
2  COc1cc(N2CCC(N3CCN(C)CC3)CC2)ccc1Nc1nc(Nc2cccc3c2N(S(C)(=O)=O)CC3)c2sccc2n1        349 nM
3  COc1cc(N2C[C@@H](C)N(C)[C@@H](C)C2)c(C)cc1Nc1nc(Nc2cccc3c2N(S(C)(=O)=O)CC3)c2cc[nH]c2n1       57.3 nM
4  CN(C)C1CCN(c2ccc(Nc3ncc(Cl)c(Nc4cccc5c4N(S(C)(=O)=O)CC5)n3)c3c2OCO3)CC1       10.1 nM
5  COc1cc(N2CCN(C)[C@@H](C)C2)c(C)cc1Nc1nc(Nc2cccc3c2N(S(C)(=O)=O)CC3)c2cc[nH]c2n1         87 nM
6  CN1CCN(C2CCN(c3ccc(Nc4nc(Nc5cccc6c5N(S(C)(=O)=O)CC6)c5cc[nH]c5n4)c4c3CCO4)CC2)CC1       38.3 nM

* * *

# Target of assay: EGFR(L858R_T790M_C797S) (aa695-end, Invitrogen) (Homo sapiens, UniProt P00533, C797S/L858R/T790M)
# Sequence (P00533 695-1210 T790M/C797S/L858R): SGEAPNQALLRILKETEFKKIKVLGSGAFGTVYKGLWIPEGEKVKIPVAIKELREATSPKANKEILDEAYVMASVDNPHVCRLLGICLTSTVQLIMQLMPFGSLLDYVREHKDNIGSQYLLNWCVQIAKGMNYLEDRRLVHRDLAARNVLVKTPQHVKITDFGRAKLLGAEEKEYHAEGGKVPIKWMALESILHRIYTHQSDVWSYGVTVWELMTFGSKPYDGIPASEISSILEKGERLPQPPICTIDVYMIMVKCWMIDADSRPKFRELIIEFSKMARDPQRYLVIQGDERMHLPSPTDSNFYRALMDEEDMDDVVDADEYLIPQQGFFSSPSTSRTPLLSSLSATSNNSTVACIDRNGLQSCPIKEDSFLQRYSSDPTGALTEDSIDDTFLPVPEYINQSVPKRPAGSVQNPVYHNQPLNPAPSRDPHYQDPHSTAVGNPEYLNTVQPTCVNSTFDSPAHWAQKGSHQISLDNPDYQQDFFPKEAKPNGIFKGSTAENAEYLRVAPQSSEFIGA
# Assay comment: Biochemical EGFR inhibition assay (TR-FRET), L858R/T790M/C797S mutant
# Stated conditions: ATP at Km, 15 min pre-incubation, 60 min reaction; read-out: LR_TM_CS (Km ATP) IC50
Property: IC50; scope: individual compounds
Metric name: IC50 (nM)

> print(dat)
                                   compound  metric.name  result.value
1  COc1cc(N2CCC(N3CCN(C)CC3)CC2)ccc1Nc1ncc(Cl)c(Nc2cccc3c2N(S(C)(=O)=O)C(C)C3)n1 (stereo not shown)         IC50           0.4
2  COc1cc(C2CCN(CCN(C)C)CC2)c(C)cc1Nc1nc(Nc2cccc3c2N(S(C)(=O)=O)CC3)c2cc[nH]c2n1         IC50           3.1
3  COc1cc(-c2cnn(CCN(C)C)c2)ccc1Nc1nc(Nc2cccc3c2N(S(C)(=O)=O)CC3)c2cc[nH]c2n1         IC50            16
4  CN(C)C1CCN(c2ccc(Nc3ncc(Br)c(Nc4cccc5c4N(S(C)(=O)=O)CC5)n3)c3c2OCCO3)CC1         IC50          0.25

* * *

# Target of assay: BaF3-LR_TM_CS cells (Homo sapiens, UniProt P00533, T790M/C797S/L858R, cells depend on it)
# Assay comment: Cell antiproliferation assay (CellTiter-Glo), BaF3-LR_TM_CS
# Format: cell-based
# Stated conditions: 48 h treatment, read-out: BaF3-LR_TM_CS IC50
Metric name: GI50 (nM)

> print(dat)
                                entry.smiles  result.value
 1  COc1cc(N2CCC(N3CCN(C)CC3)CC2)ccc1Nc1nc(Nc2cccc3c2N(S(C)(=O)=O)CC3)c2nc[nH]c2n1          2200
 2  CCN1CCN(C2CCN(c3ccc(Nc4nc(Nc5cccc6c5N(S(C)(=O)=O)CC6)c5cn[nH]c5n4)cc3F)CC2)CC1           350
 3  COc1cc(N2CCC(N3CCN(C)CC3)CC2)ccc1Nc1ncc(Cl)c(Nc2cccc3c2N(S(C)(=O)=O)CCC3)n1           143
 4  COc1cc(N2CCC(N3CCN(C)CC3)CC2)ccc1Nc1ncc(Cl)c(Nc2ccc(C)c3c2N(S(C)(=O)=O)CC3)n1          57.2
 5  COc1cc(N2CCC(N3CCN(C)CC3)CC2)ccc1Nc1nc(Nc2cccc3c2N(S(C)(=O)=O)CC3)c2c(Cl)c[nH]c2n1           141
 6  CCOc1cc(N2CCC(N3CCN(C)CC3)CC2)c(C)cc1Nc1nc(Nc2cccc3c2N(S(C)(=O)=O)CC3)c2cc[nH]c2n1           218
 7  COc1cc(N2CCC(N3CCN(C)CC3)CC2)ccc1Nc1ncc(Cl)c(Nc2cccc3c2N(S(=O)(=O)CCc2ccccc2)CC3)n1           730
 8  COc1cc(N2CCC(N3CCN(C)CC3)CC2)ccc1Nc1nc(Nc2cccc3c2N(S(C)(=O)=O)CC3)c2sccc2n1           459
 9  CN(C)C1CCN(c2ccc(Nc3ncc(Br)c(Nc4cccc5c4N(S(C)(=O)=O)CC5)n3)c3c2OCO3)CC1          18.7
10  CN1CCN(C2CCN(c3ccc(Nc4nc(Nc5cccc6c5N(S(C)(=O)=O)CC6)c5cc[nH]c5n4)c4c3CCO4)CC2)CC1          61.3
11  CCCS(=O)(=O)N1CCc2cccc(Nc3nc(Nc4ccc(N5CCC(N6CCN(C)CC6)CC5)cc4OC)ncc3Cl)c21           221
12  COc1cc(N2CCC(N3CCN(C)CC3)CC2)ccc1Nc1ncc(Cl)c(Nc2cccc3c2N(S(C)(=O)=O)CC3)n1          37.3
13  CCN1CCN(C2CCN(c3ccc(Nc4nc(Nc5cccc6c5N(S(C)(=O)=O)CC6)c5cc[nH]c5n4)cc3F)CC2)CC1            62

These data points were gathered from patent US20260167619A2.
